test system: LNCaP tumor-transplanted mouse; test: Internal radioactivity distribution using LNCaP tumor-transplanted mouse; type: in vivo; conditions: 48 h after administration

compound: O=C([O-])CN(Cc1cccc(C(=O)[O-])n1)C[C@H](Cc1ccc(NC(=O)[C@H](CCCCNC(=O)CCC(=O)NCCCC[C@H](NC(=O)N[C@@H](CCC(=O)O)C(=O)O)C(=O)O)NC(=O)CCCc2ccc(I)cc2)cc1)N(CC(=O)[O-])Cc1cccc(C(=O)[O-])n1.[111In+3] [[^111In]In-Octapa-2]
target-or-test-system: LNCaP tumor-transplanted mouse
unit-text: % ID/g
Kidney: 22.4

====

tested on: LNCaP tumor-transplanted mouse; assay: Internal radioactivity distribution using LNCaP tumor-transplanted mouse; assay type: in vivo; details: 192 h after administration
Entries and their Liver values follow.

compound: O=C([O-])CN(CCN(CCc1ccc(NC(=O)[C@H](CCCCNC(=O)CCC(=O)NCCCC[C@H](NC(=O)N[C@@H](CCC(=O)O)C(=O)O)C(=O)O)NC(=O)CCCc2ccc(I)cc2)cc1)CCN(CC(=O)[O-])Cc1cccc(C(=O)[O-])n1)Cc1cccc(C(=O)[O-])n1.[111In+3] [[^111In]In-Neunpa-2]
unit-text: % ID/g
Liver: 0.64

compound: O=C([O-])CN1CCN(C(CCC(=O)NCCCC[C@H](NC(=O)N[C@@H](CCC(=O)O)C(=O)O)C(=O)O)C(=O)[O-])CCN(CC(=O)[O-])CCN(C(CCC(=O)N[C@@H](CCCCNC(=O)CCCc2ccc(I)cc2)C(=O)O)C(=O)[O-])CC1.[111In+3] (some centres unmarked) [[^111In]In-PSMA-DA1]
unit-text: % ID/g
Liver: 0.69

compound: O=C(O)CC[C@H](NC(=O)N[C@@H](CCCCNC(=O)[C@H](Cc1ccc2ccccc2c1)NC(=O)[C@H]1CC[C@H](CNC(=O)CCC(C(=O)O)N2CCN(CC(=O)O)CCN(C(CCC(=O)N[C@@H](CCCCNC(=O)CCCc3ccc(I)cc3)C(=O)O)C(=O)O)CCN(CC(=O)O)CC2)CC1)C(=O)O)C(=O)O (some centres unmarked) [[^111In]In-PSMA-NAT-DA1, metal not drawn]
unit-text: % ID/g
Liver: 2.25

compound: O=C([O-])CN1CCN(C(CCC(=O)NCCCC[C@H](NC(=O)N[C@@H](CCC(=O)O)C(=O)O)C(=O)O)C(=O)[O-])CCN(CC(=O)[O-])CCN(C(CCC(=O)Nc2ccccc2)C(=O)[O-])CC1.[111In+3] (some centres unmarked) [[^111In]In-PSMA-DB, reference compound]
unit-text: % ID/g
Liver: 1.20

compound: O=C([O-])CN(Cc1cccc(C(=O)[O-])n1)C[C@H](Cc1ccc(NC(=O)[C@H](CCCCNC(=O)CCC(=O)NCCCC[C@H](NC(=O)N[C@@H](CCC(=O)O)C(=O)O)C(=O)O)NC(=O)COCCOCCOCC(=O)N[C@@H](CCCCNC(=O)CCCc2ccc(I)cc2)C(=O)O)cc1)N(CC(=O)[O-])Cc1cccc(C(=O)[O-])n1.[111In+3] [[^111In]In-Octapa-3]
unit-text: % ID/g
Liver: 0.35

compound: O=C([O-])CN(Cc1cccc(C(=O)[O-])n1)C[C@H](Cc1ccc(NC(=O)CCCCCNC(=O)CCC(=O)NCCCC[C@H](NC(=O)N[C@@H](CCC(=O)O)C(=O)O)C(=O)O)cc1)N(CC(=O)[O-])Cc1cccc(C(=O)[O-])n1.[111In+3] [[^111In]In-Octapa-1, reference compound]
unit-text: % ID/g
Liver: 0.05

compound: O=C([O-])CN(Cc1cccc(C(=O)[O-])n1)C[C@H](Cc1ccc(NC(=O)[C@H](CCCCNC(=O)CCC(=O)NCCCC[C@H](NC(=O)N[C@@H](CCC(=O)O)C(=O)O)C(=O)O)NC(=O)CCCc2ccc(I)cc2)cc1)N(CC(=O)[O-])Cc1cccc(C(=O)[O-])n1.[111In+3] [[^111In]In-Octapa-2]
unit-text: % ID/g
Liver: 0.20

compound: O=C([O-])CN(CCN(CCc1ccc(NC(=O)CCCCCNC(=O)CCC(=O)NCCCC[C@H](NC(=O)N[C@@H](CCC(=O)O)C(=O)O)C(=O)O)cc1)CCN(CC(=O)[O-])Cc1cccc(C(=O)[O-])n1)Cc1cccc(C(=O)[O-])n1.[111In+3] [[^111In]In-Neunpa-1, reference compound]
unit-text: % ID/g
Liver: 0.63

====

test system: LNCaP tumor-transplanted mouse; assay: Internal radioactivity distribution using LNCaP tumor-transplanted mouse; assay type: in vivo; settings: 96 h after administration
The label depends only on Spleen: 1 if it is at least 0.9 % ID/g, 0 if it is smaller.

molecule: O=C([O-])CN1CCN(C(CCC(=O)NCCCC[C@H](NC(=O)N[C@@H](CCC(=O)O)C(=O)O)C(=O)O)C(=O)[O-])CCN(CC(=O)[O-])CCN(C(CCC(=O)N[C@@H](CCCCNC(=O)CCCc2ccc(I)cc2)C(=O)O)C(=O)[O-])CC1.[111In+3] (some centres unmarked) [[^111In]In-PSMA-DA1]
label-value: 1

molecule: O=C([O-])CN(Cc1cccc(C(=O)[O-])n1)C[C@H](Cc1ccc(NC(=O)CCCCCNC(=O)CCC(=O)NCCCC[C@H](NC(=O)N[C@@H](CCC(=O)O)C(=O)O)C(=O)O)cc1)N(CC(=O)[O-])Cc1cccc(C(=O)[O-])n1.[111In+3] [[^111In]In-Octapa-1, reference compound]
label-value: 1

molecule: O=C([O-])CN(CCN(CCc1ccc(NC(=O)CCCCCNC(=O)CCC(=O)NCCCC[C@H](NC(=O)N[C@@H](CCC(=O)O)C(=O)O)C(=O)O)cc1)CCN(CC(=O)[O-])Cc1cccc(C(=O)[O-])n1)Cc1cccc(C(=O)[O-])n1.[111In+3] [[^111In]In-Neunpa-1, reference compound]
label-value: 1

molecule: O=C([O-])CN1CCN(C(CCC(=O)NCCCC[C@H](NC(=O)N[C@@H](CCC(=O)O)C(=O)O)C(=O)O)C(=O)[O-])CCN(CC(=O)[O-])CCN(C(CCC(=O)Nc2ccccc2)C(=O)[O-])CC1.[111In+3] (some centres unmarked) [[^111In]In-PSMA-DB, reference compound]
label-value: 1

molecule: O=C([O-])CN(Cc1cccc(C(=O)[O-])n1)C[C@H](Cc1ccc(NC(=O)[C@H](CCCCNC(=O)CCC(=O)NCCCC[C@H](NC(=O)N[C@@H](CCC(=O)O)C(=O)O)C(=O)O)NC(=O)CCCc2ccc(I)cc2)cc1)N(CC(=O)[O-])Cc1cccc(C(=O)[O-])n1.[111In+3] [[^111In]In-Octapa-2]
label-value: 0

molecule: O=C([O-])CN(CCN(CCc1ccc(NC(=O)[C@H](CCCCNC(=O)CCC(=O)NCCCC[C@H](NC(=O)N[C@@H](CCC(=O)O)C(=O)O)C(=O)O)NC(=O)CCCc2ccc(I)cc2)cc1)CCN(CC(=O)[O-])Cc1cccc(C(=O)[O-])n1)Cc1cccc(C(=O)[O-])n1.[111In+3] [[^111In]In-Neunpa-2]
label-value: 0

molecule: O=C(O)CC[C@H](NC(=O)N[C@@H](CCCCNC(=O)[C@H](Cc1ccc2ccccc2c1)NC(=O)[C@H]1CC[C@H](CNC(=O)CCC(C(=O)O)N2CCN(CC(=O)O)CCN(C(CCC(=O)N[C@@H](CCCCNC(=O)CCCc3ccc(I)cc3)C(=O)O)C(=O)O)CCN(CC(=O)O)CC2)CC1)C(=O)O)C(=O)O (some centres unmarked) [[^111In]In-PSMA-NAT-DA1, metal not drawn]
label-value: 1

====

Tested on: LNCaP tumor-transplanted mouse
Assay: Internal radioactivity distribution using LNCaP tumor-transplanted mouse
Assay type: in vivo
Conditions: 48 h after administration
Protocol: The animal test was performed in compliance with the guidelines of Kyoto University Animal Experiment Committee. […] LNCaP or PC-3 tumor-implanted mice were administered saline solutions (185 kBq, 100 μL) of [^111In]In-PSMA-DA1 or [^111In]In-PSMA-DB from the tail vein (n=3 each). […] Thereafter, blood and each organ were recovered, and the mass and radioactivity of the organs were measured. […]

molecule: O=C([O-])CN1CCN(C(CCC(=O)NCCCC[C@H](NC(=O)N[C@@H](CCC(=O)O)C(=O)O)C(=O)O)C(=O)[O-])CCN(CC(=O)[O-])CCN(C(CCC(=O)Nc2ccccc2)C(=O)[O-])CC1.[111In+3] (stereo partly drawn) [[^111In]In-PSMA-DB, reference compound]
unit-text: % ID
Stomach (% ID): 0.07
--
molecule: O=C([O-])CN(Cc1cccc(C(=O)[O-])n1)C[C@H](Cc1ccc(NC(=O)CCCCCNC(=O)CCC(=O)NCCCC[C@H](NC(=O)N[C@@H](CCC(=O)O)C(=O)O)C(=O)O)cc1)N(CC(=O)[O-])Cc1cccc(C(=O)[O-])n1.[111In+3] [[^111In]In-Octapa-1, reference compound]
unit-text: % ID
Stomach (% ID): 0.07
--
molecule: O=C([O-])CN(CCN(CCc1ccc(NC(=O)CCCCCNC(=O)CCC(=O)NCCCC[C@H](NC(=O)N[C@@H](CCC(=O)O)C(=O)O)C(=O)O)cc1)CCN(CC(=O)[O-])Cc1cccc(C(=O)[O-])n1)Cc1cccc(C(=O)[O-])n1.[111In+3] [[^111In]In-Neunpa-1, reference compound]
unit-text: % ID
Stomach (% ID): 0.09

The measured values listed here are drawn from patent US20240174622A1.
